# Read-out: Cytochrome P450 (CYP1A2), CYP1A2 (gene 1544)
# experimentalDetails: LTEA_HepaRG_CYP1A2: Life Technologies and Expression Analysis (LTEA) Assay for Cytochrome P450 (CYP1A2) using HepaRG (AID 2283479)
# conditionLabel: mRNA level, 48 h; actives raise or lower the signal
Active and inactive are the calls of the source. The calls were made as follows: active = hit-call score of the fitted dose curve at least 0.9, where 1 is the maximum; inactive = score below 0.9.
Possible outcomes: active, inactive

compound	groupLabel
Cc1ccc(N)cc1N	active
c1nc[nH]n1	active
CC(C)(C)OOC(C)(C)C	inactive
CCN(CC)c1ccccc1	active
Nc1ccc2ccccc2c1	active
Cc1cccc(N)c1	active
CCOC(=O)c1ccccc1C(=O)OCC	active
CCCCCCCc1ccc(O)cc1	inactive
OCC1CO1 (centres undefined)	inactive
CSC(C)(C)C=NO	inactive
c1ccc2c(c1)Nc1ccccc1S2	active
O=P(Oc1ccccc1)(Oc1ccccc1)Oc1ccccc1	active
CC(Cc1ccc(OCC(=O)O)cc1)NCC(O)c1csc(C(F)(F)F)n1 (centres undefined)	active
O=[N+]([O-])c1ccccc1	inactive
CCOc1ccc(C(C)(C)COCc2cccc(Oc3ccccc3)c2)cc1	active
ClC1=C(Cl)C2(Cl)C3C(Cl)C(Cl)CC3C1(Cl)C2(Cl)Cl (centres undefined)	inactive
c1ccc(OP(Oc2ccccc2)Oc2ccccc2)cc1	inactive
CCOP(=S)(OCC)SCSCC	inactive
O=C(O)C(Cl)Cl	inactive
CC(Cl)(Cl)C(=O)O	inactive
ClC(Cl)c1ccccc1	inactive
CCCCN(CCCC)N=O	inactive
Cc1ccc([N+](=O)[O-])cc1C	inactive
ClC(Cl)(Cl)c1ccccc1	inactive

###

# systemUnderTest: Signal transducer and activator of transcription 3 (Homo sapiens)
# experimentalDetails: ATG_STAT3_CIS: Attagene CIS-FACTORIAL HepG2 Assay for human Signal Transducer and Activator of Transcription 3 (STAT3) (AID 2282963)
# conditionLabel: HepG2, Attagene cis-factorial STAT3 reporter transcription; actives raise or lower the signal
Activity calls are given as the source filed them. The calls were made as follows: active = hit-call score of the fitted dose curve at least 0.9, where 1 is the maximum; inactive = score below 0.9.
Possible outcomes: yes (1) (active), no (0) (inactive)

compound	systemUnderTest	groupLabel
Oc1ccccc1Br	Signal transducer and activator of transcription 3 (Homo sapiens)	no (0)
OCC(F)(F)OC(F)(F)C(F)(F)OC(F)(F)C(F)(F)OC(F)(F)CO	Signal transducer and activator of transcription 3 (Homo sapiens)	no (0)
COCCOCCO	Signal transducer and activator of transcription 3 (Homo sapiens)	no (0)
N#Cc1ccc(O)cc1	Signal transducer and activator of transcription 3 (Homo sapiens)	no (0)
O=C(CBr)OCc1ccccc1	Signal transducer and activator of transcription 3 (Homo sapiens)	no (0)
CC(O)C#N (configuration not stated)	Signal transducer and activator of transcription 3 (Homo sapiens)	no (0)
O=[N+]([O-])c1ccccc1	Signal transducer and activator of transcription 3 (Homo sapiens)	no (0)
CO/N=C(/C(=O)OC)c1ccccc1COc1ccccc1C	Signal transducer and activator of transcription 3 (Homo sapiens)	no (0)
CCN(CC)c1ccccc1	Signal transducer and activator of transcription 3 (Homo sapiens)	no (0)
CSC(C)(C)C=NO	Signal transducer and activator of transcription 3 (Homo sapiens)	no (0)
Cc1ccc(N)cc1N	Signal transducer and activator of transcription 3 (Homo sapiens)	no (0)
CCN(CC)C1CCCCC1	Signal transducer and activator of transcription 3 (Homo sapiens)	no (0)
CC(=O)c1ccc(-c2ccccc2)cc1	Signal transducer and activator of transcription 3 (Homo sapiens)	no (0)
COP(=O)(O)OC	Signal transducer and activator of transcription 3 (Homo sapiens)	no (0)
C=C(C)C(=O)OCC1CO1 (configuration not stated)	Signal transducer and activator of transcription 3 (Homo sapiens)	no (0)
Cc1ccc2c(c1N)C(=O)c1ccccc1C2=O	Signal transducer and activator of transcription 3 (Homo sapiens)	no (0)
CCCCCCCc1ccc(O)cc1	Signal transducer and activator of transcription 3 (Homo sapiens)	no (0)
COC(=O)C(F)(F)C(F)(F)OC(F)(C(F)(F)F)C(F)(F)OC(F)=C(F)F (configuration not stated)	Signal transducer and activator of transcription 3 (Homo sapiens)	no (0)
CC1(C)CN=C(NN=C(/C=C/c2ccc(C(F)(F)F)cc2)/C=C/c2ccc(C(F)(F)F)cc2)NC1	Signal transducer and activator of transcription 3 (Homo sapiens)	yes (1)
C/C(=N\NC(=O)Nc1cc(F)cc(F)c1)c1ncccc1C(=O)O	Signal transducer and activator of transcription 3 (Homo sapiens)	no (0)
O=P(OCC(Br)CBr)(OCC(Br)CBr)OCC(Br)CBr (configuration not stated)	Signal transducer and activator of transcription 3 (Homo sapiens)	no (0)
CCCCC(CC)COC(=O)c1c(Br)c(Br)c(Br)c(Br)c1C(=O)OCC(CC)CCCC (configuration not stated)	Signal transducer and activator of transcription 3 (Homo sapiens)	no (0)
NNC(N)=S	Signal transducer and activator of transcription 3 (Homo sapiens)	no (0)
Nc1ccc(Sc2ccc(N)cc2)cc1	Signal transducer and activator of transcription 3 (Homo sapiens)	no (0)
CC(Cl)CN(C)C (configuration not stated)	Signal transducer and activator of transcription 3 (Homo sapiens)	no (0)
C=CC(=O)OCC(F)(F)C(F)F	Signal transducer and activator of transcription 3 (Homo sapiens)	no (0)
O=[N+]([O-])c1cc(Cl)ccc1Cl	Signal transducer and activator of transcription 3 (Homo sapiens)	no (0)
CCOC(=O)c1ccccc1N	Signal transducer and activator of transcription 3 (Homo sapiens)	no (0)
OCC(F)(F)OC(F)(F)C(F)(F)OC(F)(F)C(F)(F)OC(F)(F)F	Signal transducer and activator of transcription 3 (Homo sapiens)	no (0)
Nc1cc2c3c(c1)C(c1ccccc1)=N[C@@H](NC(=O)c1cccnc1)C(=O)N3CC2	Signal transducer and activator of transcription 3 (Homo sapiens)	no (0)
c1cc2c3c(cccc3c1)CC2	Signal transducer and activator of transcription 3 (Homo sapiens)	no (0)
CCOP(=S)(OCC)SCSc1ccc(Cl)cc1	Signal transducer and activator of transcription 3 (Homo sapiens)	no (0)
CNC(=O)Oc1ccc(N(C)C)c(C)c1	Signal transducer and activator of transcription 3 (Homo sapiens)	no (0)
CCOC(=O)c1ccccc1C(=O)OCC	Signal transducer and activator of transcription 3 (Homo sapiens)	no (0)
COP(=O)(CCC(=O)NCO)OC	Signal transducer and activator of transcription 3 (Homo sapiens)	no (0)
N#C/C=C/c1ccccc1	Signal transducer and activator of transcription 3 (Homo sapiens)	no (0)
CC(C)(C)c1ccccc1OP(=O)(Oc1ccccc1)Oc1ccccc1	Signal transducer and activator of transcription 3 (Homo sapiens)	no (0)
CCCCN(CC)C(=O)SCCC	Signal transducer and activator of transcription 3 (Homo sapiens)	no (0)
CC(C)(C)OOC(C)(C)C	Signal transducer and activator of transcription 3 (Homo sapiens)	no (0)
ClC(Cl)(Cl)c1ccccc1	Signal transducer and activator of transcription 3 (Homo sapiens)	no (0)
CCOP(=S)(NC(C)C)Oc1ccccc1C(=O)OC(C)C (configuration not stated)	Signal transducer and activator of transcription 3 (Homo sapiens)	no (0)
CC(Cl)(Cl)C(=O)O	Signal transducer and activator of transcription 3 (Homo sapiens)	no (0)
O=C(O)C(Cl)Cl	Signal transducer and activator of transcription 3 (Homo sapiens)	no (0)
Cn1[nH]nnc1=S	Signal transducer and activator of transcription 3 (Homo sapiens)	no (0)
CC(C)(C)N(NC(=O)c1ccc(Cl)cc1)C(=O)c1ccccc1	Signal transducer and activator of transcription 3 (Homo sapiens)	no (0)
CCCCOCCOP(=O)(OCCOCCCC)OCCOCCCC	Signal transducer and activator of transcription 3 (Homo sapiens)	no (0)
OCC1CO1 (configuration not stated)	Signal transducer and activator of transcription 3 (Homo sapiens)	no (0)
CCCCOCC1CO1 (configuration not stated)	Signal transducer and activator of transcription 3 (Homo sapiens)	no (0)
O=[N+]([O-])c1ccc(Cl)c(Cl)c1	Signal transducer and activator of transcription 3 (Homo sapiens)	no (0)
O=c1ssc(Cl)c1Cl	Signal transducer and activator of transcription 3 (Homo sapiens)	no (0)
Oc1ccc(I)cc1	Signal transducer and activator of transcription 3 (Homo sapiens)	no (0)
O=C(O)CF	Signal transducer and activator of transcription 3 (Homo sapiens)	no (0)
CCCCN(CCCC)N=O	Signal transducer and activator of transcription 3 (Homo sapiens)	no (0)
COP(N)(=S)OC	Signal transducer and activator of transcription 3 (Homo sapiens)	no (0)
NC(=O)C(F)(F)C(F)(F)F	Signal transducer and activator of transcription 3 (Homo sapiens)	no (0)
CC(Cc1ccc(OCC(=O)O)cc1)NCC(O)c1csc(C(F)(F)F)n1 (configuration not stated)	Signal transducer and activator of transcription 3 (Homo sapiens)	no (0)
ClC(Cl)c1ccccc1	Signal transducer and activator of transcription 3 (Homo sapiens)	no (0)

###

# Read-out: Interleukin-10 (IL10), IL10 (gene 3586)
# experimentalDetails: BSK_IMphg_IL10: BioMAP Diversity Plus: IMphg Assay for Interleukin-10 (IL10) Biomarker Activity (AID 2284294)
# conditionLabel: primary human endothelial cells with macrophages
Activity calls are given as the source filed them. The calls were made as follows: active = hit-call score of the fitted dose curve at least 0.9, where 1 is the maximum; inactive = score below 0.9.

compound	outcome
CC(O)C(F)(F)C(F)(F)F (configuration not stated)	inactive
NC(=O)C(F)(F)C(F)(F)F	inactive
COC(=O)C(F)(F)C(F)(F)OC(F)(C(F)(F)F)C(F)(F)OC(F)=C(F)F (configuration not stated)	inactive
O=C(O)C=CC(F)(C(F)(F)F)C(F)(F)F	inactive
O=C(O)C(F)(F)OC(F)(F)C(F)(F)OC(F)(F)C(=O)O	inactive
O=C(O)C(F)(F)OC(F)(F)C(F)(F)OC(F)(F)F	inactive
O=S(=O)(F)C(F)(F)C(F)(F)C(F)(F)C(F)(F)C(F)(F)C(F)(F)C(F)(F)C(F)(F)F	inactive
